Listed next: entries and their corresponding normalized growth.
- experiment: chemical genetic growth profiling, strain panel (AID 1159580);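 further: tested at 20 µM; growth read once vehicle control cultures reached saturation at 30 °C; 1 = growth at the plate median or of vehicle wells; lower values mean less growth of the strain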
- cond: S. cerevisiae deletion strains, growth OD, locus YPL106C, strain sse1, hits give low values
Hit rate of the full screen: of about 5,500 compounds, about 2,000 (36%) were called active. Not shown: some 18% with an inconclusive outcome. The list shows a part of the results.

Answered cases to consult:
[
  {
    "compound": "CC(=O)O[C@@H]1C[C@@]2(C)[C@H](c3ccoc3)C[C@H]3O[C@]32[C@]2(C)C(=O)C(O)=C3C(C)(C)C(=O)C=C[C@]3(C)C12 (some centres not stated)",
    "normalized growth": "0.974 (inactive)"
  },
  {
    "compound": "Cc1ccc2c(Cl)cc(Cl)c(O)c2n1",
    "normalized growth": "1 (inactive)"
  },
  {
    "compound": "Oc1c(Br)cc(Br)c2cccnc12",
    "normalized growth": "0.115 (active)"
  },
  {
    "compound": "COc1c2c(cc3c1OCO3)CCN(C)C2",
    "normalized growth": "0.996 (inactive)"
  },
  {
    "compound": "Nc1ncnc2c1ncn2C1O[C@H](COP(=O)(O)O)[C@@H](O)[C@H]1O (some centres not stated)",
    "normalized growth": "0.997 (inactive)"
  }
]

Q: GET /values?readout=normalized growth&item= `O=C(O[C@@H]1Cc2c(O)cc(O)cc2O[C@@H]1c1cc(O)c(O)c(O)c1-c1c([C@H]2Oc3cc(O)cc(O)c3C[C@H]2O)cc(O)c(O)c1O)c1cc(O)c(O)c(O)c1`
Ans: 0.941 (inactive)

Q: Also CC(=O)O[C@@H]1CC2C(C)(C)C=CC(=O)[C@]2(C)C2CC[C@@]3(C)[C@H](c4ccoc4)OC(=O)C4OC43[C@@]21C (some centres not stated) , if possible.
Ans: 1.02 (inactive)

Q: Also `C/C=C/c1ccc2c(c1)OCO2` , if possible.
Ans: 1 (inactive)

Q: Also `C=C[C@@H](C1=CC(=O)C(OC)=C(OC)C1=O)c1ccccc1` , if possible.
Ans: 0.984 (inactive)

Q: Also C=CC(C1=CC(=O)C=CC1=O)c1ccccc1 (configuration not stated) , if possible.
Ans: 1.02 (inactive)

---

- experiment: chemical genetic growth profiling, strain panel (AID 1159580)
- cond: S. cerevisiae deletion strains, growth OD, locus YEL037C, strain rad23, hits give low values
Among all 5,500 compounds or so, about 2,000 (36%) were called active. Inconclusive results (about 18%) are left out. Some of the results follow.
Listed next: entries and their corresponding normalized growth.
Answer with the value's number alone.

Answered cases to consult:
[
  {
    "compound": "O=C1O[C@H](C(O)CO)C(O)=C1O (stereo not given in full)",
    "measured_number": 0.988
  },
  {
    "compound": "C/C=C/c1ccc2c(c1)OCO2",
    "measured_number": 1.01
  },
  {
    "compound": "C[C@H]1[C@H]2CCC3C4CC=C5C[C@@H](N(C)C)CC[C@]5(C)C4CC[C@@]32CN1C (stereo not given in full)",
    "measured_number": 0.999
  },
  {
    "compound": "CS(=O)(=O)CCCCN=C=S",
    "measured_number": 0.749
  },
  {
    "compound": "C[C@H](N)[C@H](O)c1ccc(O)c(O)c1",
    "measured_number": 1
  }
]

Q: GET /values?readout=normalized growth&item= O=C1C=CC2=C3c4cc(O)c(O)cc4CC3(O)COC2=C1O (stereo not given)
Ans: 1.01

Q: Also `O[N+]1=CC=CCC1=S.On1ccccc1=S.[Zn]` , if possible.
Ans: 0.0593

Q: Also `C1CNCCN1` , if possible.
Ans: 1.01

Q: Also `COc1cc(C(=O)NCc2ccc(OCCN(C)C)cc2)cc(OC)c1OC` , if possible.
Ans: 0.988

Q: Also `O=C(NC(=O)c1c(F)cccc1F)Nc1ccc(Cl)cc1` , if possible.
Ans: 1.01

---

Listed next: entries and their corresponding normalized growth.
- experiment: chemical genetic growth profiling, strain panel (AID 1159580);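 further: tested at 20 µM; growth read once vehicle control cultures reached saturation at 30 °C; 1 = growth at the plate median or of vehicle wells; lower values mean less growth of the strain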
- cond: S. cerevisiae deletion strains, growth OD, locus YGL253W, strain hxk2, hits give low values
The campaign covered roughly 5,500 compounds. About 2,000 (36%) were called active. Inconclusive results (about 18%) are left out. The list shows a part of the results.
Answer with the value's number alone.

Answered cases to consult:
[
  {
    "compound": "O=C(O)CF",
    "normalized growth": 1.01
  },
  {
    "compound": "Nc1ncnc2c1ncn2[C@@H]1O[C@H](CO)[C@@H](O)[C@H]1O",
    "normalized growth": 0.988
  },
  {
    "compound": "CS(=O)(=O)CCCCN=C=S",
    "normalized growth": 0.428
  }
]

// next entry
Q: GET /values?readout=normalized growth&item= O=c1[nH]c(=O)n(C2C[C@@H](O)[C@@H](CO)O2)cc1F (stereo not given in full)
Ans: 1

---

- experiment: chemical genetic growth profiling, strain panel (AID 1159580);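 further: tested at 20 µM; growth read once vehicle control cultures reached saturation at 30 °C; 1 = growth at the plate median or of vehicle wells; lower values mean less growth of the strain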
- cond: S. cerevisiae deletion strains, growth OD, locus YIL066C, strain RNR3, hits give low values
Among all 5,500 compounds or so, about 2,000 (36%) were called active. Not shown: some 18% with an inconclusive outcome. The list shows a part of the results.
observable: normalized growth
Answer with the value's number alone.

Answered cases to consult:
[
  {
    "compound": "O=C1C=CC2=C3c4cc(O)c(O)cc4CC3(O)COC2=C1O (stereo not given)",
    "observable": "normalized growth",
    "measured_number": 0.881
  },
  {
    "compound": "Oc1c(Cl)cc(Cl)c2cccnc12",
    "observable": "normalized growth",
    "measured_number": 0.0479
  },
  {
    "compound": "CSCCC(NC=O)C(=O)NC(C)C(=O)O (stereo not given)",
    "observable": "normalized growth",
    "measured_number": 1
  },
  {
    "compound": "CC(=O)NCCCCCC(=O)O",
    "observable": "normalized growth",
    "measured_number": 1.03
  }
]

// next entry
Q: GET /values?readout=normalized growth&item= `Oc1ccc(Cl)c2cccnc12`
Ans: 0.0495

---

- experiment: chemical genetic growth profiling, strain panel (AID 1159580);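 further: tested at 20 µM; growth read once vehicle control cultures reached saturation at 30 °C; 1 = growth at the plate median or of vehicle wells; lower values mean less growth of the strain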
- cond: S. cerevisiae deletion strains, growth OD, locus YNL248C, strain rpa49, hits give low values
The campaign covered roughly 5,500 compounds. About 2,000 (36%) were called active. Roughly 18% stayed inconclusive and do not appear here. The list shows a part of the results.
observable: normalized growth
Answer with the value's number alone.

Answered cases to consult:
[
  {
    "compound": "NCC(O)c1ccc(O)cc1 (stereo not given)",
    "normalized growth": 1.02
  },
  {
    "compound": "CC(=O)Nc1cc([As](=O)(O)O)ccc1O",
    "normalized growth": 0.987
  },
  {
    "compound": "C=CC(C1=CC(=O)C(OC)=CC1=O)c1ccc(O)cc1 (stereo not given)",
    "normalized growth": 1
  },
  {
    "compound": "CC(=O)O[C@H]1C[C@@H](OC(C)=O)C(C)(C)C2C[C@@H](OC(C)=O)[C@@]3(C)C4=CC(=O)O[C@@H](c5ccoc5)[C@]4(C)CCC3[C@]21C (stereo not given in full)",
    "normalized growth": 1
  },
  {
    "compound": "COc1cc(C(=O)NCc2ccc(OCCN(C)C)cc2)cc(OC)c1OC",
    "normalized growth": 0.95
  },
  {
    "compound": "CCN(CC)CCOc1ccc2c(c1)C(=O)c1cc(OCCN(CC)CC)ccc1-2",
    "normalized growth": 0.98
  },
  {
    "compound": "CCN(CC)CCOc1ccc(/C(=C(\\Cl)c2ccccc2)c2ccccc2)cc1",
    "normalized growth": 0.191
  },
  {
    "compound": "CN/C(=C\\[N+](=O)[O-])NCCSCc1ccc(CN(C)C)o1",
    "normalized growth": 0.98
  }
]

Q: GET /values?readout=normalized growth&item= `NC[C@H](O)c1ccc(O)c(O)c1`
Ans: 0.978

Q: Also `Nc1ccc(S(=O)(=O)Nc2ccccn2)cc1` , if possible.
Ans: 0.985

Q: Also `Nc1ncnc2c1ncn2[C@@H]1O[C@H](CO)[C@@H](O)[C@H]1O` , if possible.
Ans: 1.01

Q: Also `Oc1ccc(Cl)c2cccnc12` , if possible.
Ans: 0.194

Q: Also `C/C=C/c1ccc2c(c1)OCO2` , if possible.
Ans: 0.998

Q: Also CN1C(CC(=O)c2ccccc2)CCCC1CC(O)c1ccccc1 (stereo not given) , if possible.
Ans: 1.01

Q: Also `CC(=O)Nc1ccc(S(=O)(=O)c2ccc(NC(C)=O)cc2)cc1` , if possible.
Ans: 1.02

Q: Also `N[C@@H](Cc1ccc(O)c(O)c1)C(=O)O` , if possible.
Ans: 0.99
